Target or system Interstitial collagenase (Homo sapiens, UniProt P03956); metric IC50; compiled from varied reports.
quantity: IC50

compound=COCCOC(=O)N1CCN(S(=O)(=O)c2cc(F)c(Oc3ccc(Cl)cc3)c(F)c2)[C@@H](C(=O)NO)C1 experimental_system="Interstitial collagenase (Homo sapiens, UniProt P03956)" result="1 to 20 µM"
compound=CC1(C)[C@H](C(=O)NO)N(S(=O)(=O)c2ccc(OCc3ccc(F)cc3)cc2)CCS1(=O)=O experimental_system="Interstitial collagenase (Homo sapiens, UniProt P03956)" result="0.305 µM"
compound=COc1ccc(S(=O)(=O)N(Cc2cccnc2)c2c(C(=O)NO)cc(C)cc2-c2cccs2)cc1 experimental_system="Interstitial collagenase (Homo sapiens, UniProt P03956)" result="0.055 µM"
compound="CCCCCCOc1ccc(C(=O)[C@@H]2CC[C@H](Cn3nnc4ccc(C(F)(F)F)cc4c3=O)[C@H]2C(=O)O)cc1 (single isomer, unassigned)" experimental_system="Interstitial collagenase (Homo sapiens, UniProt P03956)" result="8.4 µM"
compound=O=C(O)CN1CCN(S(=O)(=O)c2cc(F)c(Oc3ccc(Cl)cc3)c(F)c2)[C@@H](C(=O)NO)C1 experimental_system="Interstitial collagenase (Homo sapiens, UniProt P03956)" result="> 20 µM"
compound=O=C(Nc1ccc(S(=O)(=O)N[C@@H](Cc2ccccc2)C(=O)O)cc1)c1ccc2ccccc2c1 experimental_system="Interstitial collagenase (Homo sapiens, UniProt P03956)" result="> 10 µM"
compound="O=C(O)[C@@H]1[C@@H](Cn2nnc3ccc(C(F)(F)F)cc3c2=O)CC[C@H]1C(=O)c1ccc(OCc2cccc(Cl)c2)cc1 (single isomer, unassigned)" experimental_system="Interstitial collagenase (Homo sapiens, UniProt P03956)" result="24 µM"
compound=Cc1cc(C2CCN(S(=O)(=O)C3(C(=O)NO)CCN(C)CC3)CC2)ccc1-c1cccc(OCCO)n1 experimental_system="Interstitial collagenase (Homo sapiens, UniProt P03956)" result="> 1 µM"
compound=Cc1cc(C2CCN(S(=O)(=O)C3(C(=O)NO)CCOCC3)CC2)ccc1-c1cccc(OC[C@H](O)CO)n1 experimental_system="Interstitial collagenase (Homo sapiens, UniProt P03956)" result="> 1 µM"
compound="O=C(O)[C@H]1[C@H](Cn2nnc3ccccc3c2=O)CC[C@@H]1C(=O)c1ccc(OCc2ccc(Cl)c(Cl)c2)cc1 (racemic)" experimental_system="Interstitial collagenase (Homo sapiens, UniProt P03956)" result="16 µM"
compound=CCCCCCCNC(=O)[C@H](CCC(=O)O)NC(=O)c1ccc(-c2ccccc2)cc1 experimental_system="Interstitial collagenase (Homo sapiens, UniProt P03956)" result="> 200 µM"
compound=O=C(O)CN([C@]1(C(=O)O)C[C@H]1c1ccccc1)S(=O)(=O)c1ccc(-c2ccc(Cl)cc2)cc1 experimental_system="Interstitial collagenase (Homo sapiens, UniProt P03956)" result="≥ 10 µM"
compound="Cc1cccn(CC2(c3ccc(Cc4ccccc4)cc3)NC(=O)NC2=O)c1=O (stereo not shown)" experimental_system="Interstitial collagenase (Homo sapiens, UniProt P03956)" result="> 100 µM"
compound=O=C(NO)[C@H]1CN(C(=O)OCCN2CCCCC2)CCN1S(=O)(=O)c1cc(F)c(Oc2ccc(Cl)cc2)c(F)c1 experimental_system="Interstitial collagenase (Homo sapiens, UniProt P03956)" result="1 to 20 µM"
compound="O=C(O)c1cn(CCN(C2(C(=O)O)CC2c2ccccc2)S(=O)(=O)c2ccc(-c3ccc(Cl)cc3)cc2)cn1 (stereo not shown)" experimental_system="Interstitial collagenase (Homo sapiens, UniProt P03956)" result="≥ 10 µM"
compound=CN(C)C(=O)CN1CCN(S(=O)(=O)c2cc(F)c(Oc3ccc(Cl)cc3)c(F)c2)[C@@H](C(=O)NO)C1 experimental_system="Interstitial collagenase (Homo sapiens, UniProt P03956)" result="> 20 µM"
compound="O=C(O)C1CN(CCCCCCO)C(=O)CN1S(=O)(=O)c1ccc(-c2ccc(Br)cc2)cc1 (stereo not shown)" experimental_system="Interstitial collagenase (Homo sapiens, UniProt P03956)" result="0.029 µM"
compound="CCCCCCOc1ccc2c(C(=O)CC(CCn3nnc4ccccc4c3=O)C(=O)O)coc2c1 (single isomer, unassigned; (+))" experimental_system="Interstitial collagenase (Homo sapiens, UniProt P03956)" result="> 40 µM"
compound=CC(C)[C@H](NS(=O)(=O)c1ccc2c(c1)Sc1ccccc1O2)C(=O)O experimental_system="Interstitial collagenase (Homo sapiens, UniProt P03956)" result="39 µM"
compound=COc1ccc(S(=O)(=O)N2Cc3c(c4ccccc4n3CC(=O)NCCN3CCOCC3)C[C@@H]2C(=O)NO)cc1 experimental_system="Interstitial collagenase (Homo sapiens, UniProt P03956)" result="0.0326 µM"
compound="O=C(O)[C@@H]1[C@@H](Cn2nnc3ccccc3c2=O)CC[C@H]1C(=O)c1ccc(OCC2CCOCC2)cc1 (stereo in doubt)" experimental_system="Interstitial collagenase (Homo sapiens, UniProt P03956)" result="10 µM"
compound=COCCOC(=O)N1CCN(S(=O)(=O)c2ccc(Oc3ccc(F)cc3)c(F)c2)[C@@H](C(=O)NO)C1 experimental_system="Interstitial collagenase (Homo sapiens, UniProt P03956)" result="0.05 to 1 µM"
compound="CN([C@]1(C(=O)O)C[C@H]1c1cccc(Oc2ccccc2)c1)S(=O)(=O)c1ccc(-c2ccc(Cl)cc2)cc1 (relative stereo)" experimental_system="Interstitial collagenase (Homo sapiens, UniProt P03956)" result="≥ 10 µM"
compound=CSCC[C@@H](NS(=O)(=O)c1ccc(C#Cc2ccc3ccccc3c2)s1)C(=O)O experimental_system="Interstitial collagenase (Homo sapiens, UniProt P03956)" result="> 10 µM"
compound="COC(=O)CN([C@]1(C(=O)O)C[C@H]1c1ccccc1)S(=O)(=O)c1ccc(-c2ccc(Cl)cc2)cc1 (relative stereo)" experimental_system="Interstitial collagenase (Homo sapiens, UniProt P03956)" result="≥ 10 µM"
compound=O=C(NO)[C@H]1CN(CC(=O)N2CCCC2)CCN1S(=O)(=O)c1cc(F)c(Oc2ccc(Cl)cc2)c(F)c1 experimental_system="Interstitial collagenase (Homo sapiens, UniProt P03956)" result="> 20 µM"
compound=O=C(O)CN(CC(=O)NO)S(=O)(=O)c1ccc(Oc2ccc(F)cc2)cc1 experimental_system="Interstitial collagenase (Homo sapiens, UniProt P03956)" result="4.69 µM"
compound="O=C(CC(CCn1nnc2ccccc2c1=O)C(=O)O)c1cc2cc(OCCC3CCOCC3)ccc2o1 (racemic)" experimental_system="Interstitial collagenase (Homo sapiens, UniProt P03956)" result="> 40 µM"

====

Target or system UniProtKB P03956; metric IC50; compiled from varied reports.
quantity: IC50

molecule="O=C(O)CN([C@]1(C(=O)O)C[C@H]1c1c(Cl)cccc1Cl)S(=O)(=O)c1ccc(-c2ccc(Cl)cc2)cc1 (relative stereo)" quantity=IC50 result="≥ 10 µM"
molecule="O=C(CN([C@]1(C(=O)O)C[C@H]1c1ccccc1)S(=O)(=O)c1ccc(-c2ccc(Cl)cc2)cc1)N1CC(O)C(O)C1 (relative stereo)" quantity=IC50 result="≥ 10 µM"
molecule="Cc1cccc([C@@H]2C[C@@]2(C(=O)O)N(CC(=O)O)S(=O)(=O)c2ccc(-c3ccc(Cl)cc3)cc2)c1 (relative stereo)" quantity=IC50 result="≥ 10 µM"
molecule="Cc1cccn(CC2(c3ccc(Oc4ccccc4F)cc3)NC(=O)NC2=O)c1=O (stereo not shown)" quantity=IC50 result="> 100 µM"
molecule="Cc1ccc2nnn(C[C@H]3CC[C@@H](C(=O)c4ccc(OCc5cccc(C(F)(F)F)c5)cc4)[C@@H]3C(=O)O)c(=O)c2c1 (single isomer, unassigned)" quantity=IC50 result="14 µM"
molecule=CC(C)(Cc1ccc(F)cc1)NC(=O)[C@H](CCC(=O)O)NC(=O)c1ccc(-c2ccccc2)cc1 quantity=IC50 result="> 200 µM"
molecule=O=C(CN([C@]1(C(=O)O)C[C@H]1c1ccccc1)S(=O)(=O)c1ccc(-c2ccc(Cl)cc2)s1)N1CCOCC1 quantity=IC50 result="≥ 10 µM"
molecule=O=C(NO)[C@H]1CN(S(=O)(=O)CCN2CCCCC2)CCN1S(=O)(=O)c1cc(F)c(Oc2ccc(Cl)cc2)c(F)c1 quantity=IC50 result="0.05 to 1 µM"
molecule="Nc1nnn(CCN([C@]2(C(=O)O)C[C@H]2c2ccccc2)S(=O)(=O)N2CCN(c3ccc(C(F)(F)F)cc3)CC2)n1 (relative stereo)" quantity=IC50 result="≥ 10 µM"
molecule=O=C(NO)[C@H]1CN(C(=O)c2ccc(-c3ccccc3)cc2)CCN1S(=O)(=O)c1cc(F)c(Oc2ccc(Cl)cc2)c(F)c1 quantity=IC50 result="1 to 20 µM"
molecule=NC(=O)C[C@H](NS(=O)(=O)c1ccc2c(c1)Sc1ccccc1O2)C(=O)O quantity=IC50 result="> 100 µM"
molecule=O=C(NO)[C@H]1CN(S(=O)(=O)c2cccnc2O)CCN1S(=O)(=O)c1cc(F)c(Oc2ccc(Cl)cc2)c(F)c1 quantity=IC50 result="1 to 20 µM"
molecule=COc1ccc(S(=O)(=O)N(c2cccc(/C(=C\C(=O)NO)c3ccc[n+]([O-])c3)c2)C(C)C)cc1 quantity=IC50 result="> 10 µM"
